FYI, the data here is from paper PMC10382551.

Target: T1, NPNA8 peptide (Plasmodium falciparum (isolate 3D7)., not fully specified)
T1 construct: source: synthetic peptide (InnoPep Inc)
T1 chain: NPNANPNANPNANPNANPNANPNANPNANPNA
Assay: BLI
Details: both partners purified
measured.endpoint: pKd
pKd here: minus log base 10 of the concentration, concentration in moles per litre.

Fill in the blank: the reported pKd of 334 Fab (Fab, V domains shown, also called mAb 334; source: ExpiCHO cells, purified (mAb Select PrismA or Capture Select, SEC)) VH: QVQLVESGGGVVQPGRSLTLSCAASGFTFSNYGMHWVRQTPGKGLAWVAIIWYDGSKTYYEDSVKGRFTISRDNSKNTLYLQMNSLRVDDTAVYYCARVRHSSSRHGSAFDLWGQGTLVTVSS VL: VIQMTQSPSTLSASVGDRVTITCRASQSVSTWLAWYQQKPGQGPKLLIYEASSLESGVPSRFSGSGSGTEFTLTISSLQPDDFATYYCQQYNSYSFWTFGQGTKVEIK is ____.
7.65

Fill in the blank: the reported pKd of 364 Fab (Fab, V domains shown, also called mAb 364; source: ExpiCHO cells, purified (mAb Select PrismA or Capture Select, SEC)) VH: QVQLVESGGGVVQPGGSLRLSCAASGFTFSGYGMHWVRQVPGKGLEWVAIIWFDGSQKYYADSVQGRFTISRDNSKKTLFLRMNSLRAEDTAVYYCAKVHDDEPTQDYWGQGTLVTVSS VL: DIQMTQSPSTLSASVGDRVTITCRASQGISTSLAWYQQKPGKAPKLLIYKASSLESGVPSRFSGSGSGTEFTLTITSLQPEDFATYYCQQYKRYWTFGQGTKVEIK is ____.
8.31

Fill in the blank: the reported pKd of 356 Fab (Fab, V domains shown, also called mAb 356; source: ExpiCHO cells, purified (mAb Select PrismA or Capture Select, SEC)) VH: QVQLVESGGGVVQPGRSLRLSCAASGFTFRNFGMHWVRQTPGKGLEWVAVIWHDGSNKFYADSVEGRFTISRDNSKNMIYLQMNSLRVEDTAIYYCARDSLFYDHDNSGYYGYWGQGTLVTVSS VL: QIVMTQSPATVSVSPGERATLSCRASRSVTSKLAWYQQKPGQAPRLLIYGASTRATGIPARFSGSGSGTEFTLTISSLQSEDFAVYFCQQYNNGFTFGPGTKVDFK is ____.
8.19
